Data credit: patent US20190248902A1

System name: T1, human ASGR-1 mutant construct H203 (human, UniProt P07306 1-291)
T1 construct: Arg/Glu scanning: non-arginine residues were changed to arginine; Transiently expressed on CHO-S cells
T1 sequence: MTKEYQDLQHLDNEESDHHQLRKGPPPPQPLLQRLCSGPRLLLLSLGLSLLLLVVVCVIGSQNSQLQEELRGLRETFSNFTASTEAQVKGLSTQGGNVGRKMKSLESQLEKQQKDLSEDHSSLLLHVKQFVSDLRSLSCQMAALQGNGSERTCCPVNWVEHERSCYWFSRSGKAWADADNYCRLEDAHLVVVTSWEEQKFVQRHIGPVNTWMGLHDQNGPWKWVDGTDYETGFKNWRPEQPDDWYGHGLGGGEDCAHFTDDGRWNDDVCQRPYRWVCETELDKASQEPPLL
Protocol details: FACS ratio: 65C12 geomean / this mAb geomean
Metric name: Expression Normalization to mAb 65C12
# answer = number (no unit)

10G6 (antibody, V domains shown, mAb) VH: QVQLVQSGAEVKKPGASVKVSCKASGYTFTAYHMHWVRQAPGQGLEWMGWINPNNNGTNYAQKFQGRVTMTRDTSISTAYMELSRLRSDDTAVYYCGRDVTSSFDYWGQGTLVTVSS VL: DIQMTQSPSSVSASVGDRVTITCRASQGISKWLAWYQQKPGKAPKILIYAAYSLQSGVPARFSGSGSGTDFTLTIRSLQPEDFATYYCQQANSFPFTFGPGTKVDIK
1.41

Here is another binder to look at.
### Prompt Given the binder 45B4 (antibody, V domains shown, mAb) VH: QVQLVESGGGVVQPGRSLRLSCAASGFTFSDCVMHWVRQAPGKGLEWVAVIWYDGSNKYYADSVKGRFTISRDNSKNTLYLQMNSLRAEDTAVYYCARERYSSGLYDYGMDVWGQGTTVTVSS VL: DIQMTQSPSSLSASVGDRVTFTCRASQGIRDDLGWYQQKPGKAPKRLIYAASSLQSGVPSRFSGSGSGTEFTLTISSLQPEDFATYYCLQHYSYPRTFGQGTKVEIK , what is its reported Expression Normalization to mAb 65C12?
### Response 1.84
